Origin of the recorded values: patent US20250215097A1

ASSAY TARGET: T1, human CCR8 (human, UniProt P51685 1-355)
T1 construct: Full-length human CCR8 stably expressed on CHO or HEK293 cells; also endogenous on HuT78 cells in one ADCC assay; also called hCCR8; CHO-hCCR8
T1 sequence (P51685 whole entry): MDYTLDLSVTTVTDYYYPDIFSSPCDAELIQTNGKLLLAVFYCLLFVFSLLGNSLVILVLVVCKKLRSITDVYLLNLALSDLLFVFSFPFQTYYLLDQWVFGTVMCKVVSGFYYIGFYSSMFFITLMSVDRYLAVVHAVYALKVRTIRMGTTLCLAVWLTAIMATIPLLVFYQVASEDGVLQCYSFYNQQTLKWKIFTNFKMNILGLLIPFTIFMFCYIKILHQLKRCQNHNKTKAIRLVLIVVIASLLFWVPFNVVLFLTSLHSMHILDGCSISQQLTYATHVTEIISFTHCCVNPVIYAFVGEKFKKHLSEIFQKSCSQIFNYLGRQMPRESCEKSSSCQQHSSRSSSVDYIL
METHOD: flow cytometry, chimeric IgG on CHO-hCCR8 cells
pEC50: −log10 of the molar value.
Values of pEC50 greater than or equal to 9 map to 1.0; values below map to 0.0.

BINDER | LABEL VALUE
30A7 anti-CCR8 chimeric antibody (antibody, V domains shown) VH: QVQLVESGGGLVQPKGSLKLSCAASGFTFNTYAMNWVRQAPGKGLEWVARIRSKSNYYATYYADSVKDRFTISRDDSQSMLYLQMNNLKTEDTAMYYCLRGKEAGAYYAMDYWGQGTSVTVSS VL: DIVMTQAAPSVPVTPGESVSISCRSSKSLLHSNGNTYLYWFLQRPGQSPQLLIYRMSNLASGVPDRFSGSGSGTAFTLRISRVEAEDVGVYYCMQHLEYPFTFGAGTKLEIK | 0.0
139A9 anti-CCR8 chimeric antibody (antibody, V domains shown) VH: QVQLVESNGRLVQPKGSLKLSCAASGFTFNAYAMNWVRQAPGKGLEWVARIRSKSNNYATYYADSVKDRFTISRDDSQSMLYLQMNNLKTEDTAMYFCVRQKFGARGYYALDFWGQGASVTVSS VL: ENVLTQSPTTMAASPGEKITITCSASSSISSNYLHWYQQKPGFSPKLLIYRTSNLASGVPARFSGSGSGTSYSLTIGTMEAEDVATYYCQQGSSIPLTFGAGTKLELK | 1.0
109F6 anti-CCR8 chimeric antibody (antibody, V domains shown) VH: QVQLVESNGRLVQPKGSLKLSCAASGFTFNAYAMNWVRQAPGKGLEWVARIRSKSNNYATYYADSVKDRFTISRDDSQSMLYLQMNNLKTEDTAMYFCVRQKFGARGYYALDFWGQGASVTVSS VL: DIVLTQSPASLAVSLGQRATISCRASKSVSTSGYSYMHWYQQKPGQPPKLLIYLASNLESGVPARFSGSGSGTDFTLNIHPVEEEDAATYYCQHSRELPPTFGGGTKLEIK | 1.0
113B3 anti-CCR8 chimeric antibody (antibody, V domains shown) VH: EVQLVESNGGLVQPKGSLKLSCAASGFTFNAYAMNWVRQAPGKGLEWVARIRSKSNNYATYYADSVKDRFTISRDDSQSMLYLQMNNLKTEDTAMYFCVRQKFGSRGYYALDFWGQGATVTVSS VL: QIVLTQSPAIMSASLGERVTMTCTASSSVSSSYLHWYQQKPGSSPKLWIYSTSNLASGVPARFSGSGSGTSYSLTISSMEAEDAATYYCHQYHRSPRTFGGGTRLEIK | 1.0
110G2 anti-CCR8 chimeric antibody (antibody, V domains shown) VH: QVQLVESNGRLVQPKGSLKLSCAASGFTFNAYAMNWVRQAPGKGLEWVARIRSKSNNYATYYADSVKDRFTISRDDSQSMLYLQMNNLKTEDTAMYFCVRQKFGARGYYALDFWGQGASVTVSS VL: EILLTQSPAIMSASPGEKVTMTCRASSSVSSSYLHWYQQKSGASPKLWIYSTSNLASGVPARFSGSGSGTSYSLTISSVEAEDAATYYCQQYSGYPYTFGGGTKLEIK | 1.0
